Method description: in vivo
Settings: albino, guinea pig, ip, 12.5 mg/kg

# Compound, Endpoint unit, Tmax
records = [
    ("CO[C@H]1/C=C/O[C@@]2(C)Oc3c(C)c(O)c4c(O)c(c(/C=N/N5CCN(C)CC5)c(O)c4c3C2=O)NC(=O)/C(C)=C\\C=C\\[C@H](C)[C@H](O)[C@@H](C)[C@@H](O)[C@@H](C)[C@H](OC(C)=O)[C@@H]1C [Rifampin, rifampin, reference compound]", "h", 2),
]

* * *

System: E. coli
Method description: MIC values, E. coli (Tables 1-4)
Format: cell-based
Reported MIC E. coli by item:

# Molecule, MIC E. coli
measured = [
    ("CO[C@H]1/C=C/O[C@@]2(C)Oc3c(C)c(O)c4c(=O)c(c5oc6cc(N7CCC(C)(N(C)C)CC7)cc(O)c6nc-5c4c3C2=O)NC(=O)/C(C)=C\\C=C\\[C@H](C)[C@H](O)[C@@H](C)[C@@H](O)[C@@H](C)[C@H](O)[C@@H]1C [Compound 73]", "2 µg/mL"),
    ("CCCNC(=O)NC1CCN(c2cc(O)c3nc4c5c6c7c(C)c(O)c5c(=O)c(c-4oc3c2)NC(=O)/C(C)=C\\C=C\\[C@H](C)[C@H](O)[C@@H](C)[C@@H](O)[C@@H](C)[C@H](O)[C@H](C)[C@@H](OC)/C=C/O[C@@](C)(O7)C6=O)CC1 [Compound 26]", ">8 µg/mL"),
]

* * *

Tested on: E. coli
Method description: MIC values, E. coli (Tables 1-4)
Assay type: cell-based
Reported MIC E. coli by item:

# Molecule, Relation operator, MIC E. coli / µg/mL
rows = [
    ("COC1C=COC2(C)Oc3c(C)c(O)c4c(=O)c(c5oc6cc(N7CC8C(C7)C8NC(=O)OCC[Si](C)(C)C)cc(O)c6nc-5c4c3C2=O)NC(=O)C(C)=CC=CC(C)C(O)C(C)C(O)C(C)C(OC(C)=O)C1C (stereo not shown) [Compound 2]", ">", 8),
    ("CO[C@H]1/C=C/O[C@@]2(C)Oc3c(C)c(O)c4c(=O)c(c5oc6cc(N7CCN(C)CC7)cc(O)c6nc-5c4c3C2=O)NC(=O)/C(C)=C\\C=C\\[C@H](C)[C@H](O)[C@@H](C)[C@@H](O)[C@@H](C)[C@H](O)[C@@H]1C [Compound 86]", "=", 4),
    ("COC1C=COC2(C)Oc3c(C)c(O)c4c(=O)c(c5oc6cc(N7CC8C(C7)C8N(C)C)cc(O)c6nc-5c4c3C2=O)NC(=O)C(C)=CC=CC(C)C(O)C(C)C(O)C(C)C(O)C1C (stereo not shown) [Compound 54]", ">", 8),
    ("COC1C=COC2(C)Oc3c(C)c(O)c4c(=O)c(c5oc6cc(N7CCN8CCCC8C7)cc(O)c6nc-5c4c3C2=O)NC(=O)C(C)=CC=CC(C)C(O)C(C)C(O)C(C)C(O)C1C (stereo not shown) [Compound 88]", "=", 8),
    ("CO[C@H]1/C=C/O[C@@]2(C)Oc3c(C)c(O)c4c(=O)c(c5oc6cc(N(C)C7CCN(C)CC7)cc(O)c6nc-5c4c3C2=O)NC(=O)/C(C)=C\\C=C\\[C@H](C)[C@H](O)[C@@H](C)[C@@H](O)[C@@H](C)[C@H](O)[C@@H]1C [Compound 129]", "=", 4),
    ("CCOC(=O)N1CCCC2CN(c3cc(O)c4nc5c6c7c8c(C)c(O)c6c(=O)c(c-5oc4c3)NC(=O)C(C)=CC=CC(C)C(O)C(C)C(O)C(C)C(OC(C)=O)C(C)C(OC)C=COC(C)(O8)C7=O)CC21 (stereo not shown) [Compound 40]", ">", 8),
    ("CO[C@H]1/C=C/O[C@@]2(C)Oc3c(C)c(O)c4c(=O)c(c5oc6cc(N7CCC(C(N)=O)CC7)cc(O)c6nc-5c4c3C2=O)NC(=O)/C(C)=C\\C=C\\[C@H](C)[C@H](O)[C@@H](C)[C@@H](O)[C@@H](C)[C@H](O)[C@@H]1C [Compound 112]", ">", 8),
    ("COC1C=COC2(C)Oc3c(C)c(O)c4c(=O)c(c5oc6cc(N7CC8CCCN(C(C)=O)C8C7)cc(O)c6nc-5c4c3C2=O)NC(=O)C(C)=CC=CC(C)C(O)C(C)C(O)C(C)C(OC(C)=O)C1C (stereo not shown) [Compound 149]", ">", 8),
    ("CCOC(=O)NCC1CCN(c2cc(O)c3nc4c5c6c7c(C)c(O)c5c(=O)c(c-4oc3c2)NC(=O)/C(C)=C\\C=C\\[C@H](C)[C@H](O)[C@@H](C)[C@@H](O)[C@@H](C)[C@H](O)[C@H](C)[C@@H](OC)/C=C/O[C@@](C)(O7)C6=O)CC1 [Compound 60]", ">", 8),
    ("CO[C@H]1/C=C/O[C@@]2(C)Oc3c(C)c(O)c4c(=O)c(c5oc6cc(N7CCC(CNC(C)=O)CC7)cc(O)c6nc-5c4c3C2=O)NC(=O)/C(C)=C\\C=C\\[C@H](C)[C@H](O)[C@@H](C)[C@@H](O)[C@@H](C)[C@H](O)[C@@H]1C [Compound 56]", "=", 8),
    ("COC1C=COC2(C)Oc3c(C)c(O)c4c(=O)c(c5oc6cc(N7CC8CCCNC8C7)cc(O)c6nc-5c4c3C2=O)NC(=O)C(C)=CC=CC(C)C(O)C(C)C(O)C(C)C(O)C1C (stereo not shown) [Compound 7]", ">", 8),
    ("CO[C@H]1/C=C/O[C@@]2(C)Oc3c(C)c(O)c4c(=O)c(c5oc6cc(N7CCC(C)(N(C)C)CC7)cc(O)c6nc-5c4c3C2=O)NC(=O)/C(C)=C\\C=C\\[C@H](C)[C@H](O)[C@@H](C)[C@@H](O)[C@@H](C)[C@H](OC(C)=O)[C@@H]1C [Compound 71]", "=", 4),
    ("CO[C@H]1/C=C/O[C@@]2(C)Oc3c(C)c(O)c4c(=O)c(c5sc6cc(N7CCN(C)CC7)ccc6nc-5c4c3C2=O)NC(=O)/C(C)=C\\C=C\\[C@H](C)[C@H](O)[C@@H](C)[C@@H](O)[C@@H](C)[C@H](O)[C@@H]1C [Compound 104]", "=", 2),
    ("CO[C@H]1/C=C/O[C@@]2(C)Oc3c(C)c(O)c4c(=O)c(c5oc6cc(N7CCC(NC(=O)OCC(C)C)CC7)cc(O)c6nc-5c4c3C2=O)NC(=O)/C(C)=C\\C=C\\[C@H](C)[C@H](O)[C@@H](C)[C@@H](O)[C@@H](C)[C@H](OC(C)=O)[C@@H]1C [Compound 13]", "=", 4),
    ("COC1C=COC2(C)Oc3c(C)c(O)c4c(=O)c(c5oc6cc(N7CC8CCCN(C(C)=O)C8C7)cc(O)c6nc-5c4c3C2=O)NC(=O)C(C)=CC=CC(C)C(O)C(C)C(O)C(C)C(O)C1C (stereo not shown) [Compound 150]", ">", 8),
    ("CO[C@H]1/C=C/O[C@@]2(C)Oc3c(C)c(O)c4c(=O)c(c5oc6cc(N7CCC(c8ccccc8)CC7)cc(O)c6nc-5c4c3C2=O)NC(=O)/C(C)=C\\C=C\\[C@H](C)[C@H](O)[C@@H](C)[C@@H](O)[C@@H](C)[C@H](O)[C@@H]1C [Compound 62]", ">", 8),
]
